Recorded IC50 by entry
system: NCI-H358 cells (K-Ras G12C); assay: CellTiter-Glo cell viability, NCI-H358; assay type: cell-based, human; conditions: Homo sapiens, NCI-H358, 120 h, K-Ras G12C, 5-day treatment; read-out: H358 Cell Viability IC50

CCn1c(-c2cccnc2[C@H](C)OC)c2c3cc(ccc31)-c1cc(O)cc(c1)C[C@H](NC(=O)[C@H](C(C)C)N(C)C(=O)[C@H]1[C@@H]3CNC[C@@H]31)C(=O)N1CCC[C@H](N1)C(=O)OCC(C)(C)C2	1 to 10 µM

Requested field: IC50. Item: CCn1c(-c2cccnc2[C@H](C)OC)c2c3cc(ccc31)-c1cc(O)cc(c1)C[C@H](NC(=O)[C@H](C(C)C)N(C)C(=O)[C@H]1CCN(C(=O)[C@@H](C)N(C)C)C1)C(=O)N1CCC[C@H](N1)C(=O)OCC(C)(C)C2
0.1 to 1 µM

----------
molecular target: KRAS G12V (Homo sapiens (Human), UniProt P01116+P62937, G12V); experiment: Ras-Raf disruption/FRET/MOA assay (BRAF RBD, Cyclophilin A); assay type: biochemical; settings: read-out: KRAS G12V FRET IC50
Sequence (P01116 other isoform, or with tags, fused parts or gaps G12V): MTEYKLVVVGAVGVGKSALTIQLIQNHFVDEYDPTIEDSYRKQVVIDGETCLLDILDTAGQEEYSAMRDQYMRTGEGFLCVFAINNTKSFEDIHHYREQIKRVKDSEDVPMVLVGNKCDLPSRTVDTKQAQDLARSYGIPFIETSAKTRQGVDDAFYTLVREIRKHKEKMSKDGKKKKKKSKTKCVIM
Sequence (P62937 whole entry): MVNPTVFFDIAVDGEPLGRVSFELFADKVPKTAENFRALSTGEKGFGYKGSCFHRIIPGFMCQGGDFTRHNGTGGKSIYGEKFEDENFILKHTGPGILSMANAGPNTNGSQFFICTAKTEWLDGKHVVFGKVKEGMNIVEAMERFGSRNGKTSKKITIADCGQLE
readout_kind: IC50

Answered examples (4):
CCn1c(-c2cccnc2[C@H](C)OC)c2c3cc(ccc31)-c1cc(O)cc(c1)C[C@H](NC(=O)[C@@H](C(C)C)N(C)C(C)=O)C(=O)N1CCC[C@H](N1)C(=O)OCC(C)(C)C2	1 to 10 µM
CCn1c(-c2cnccc2COC)c2c3cc(ccc31)-c1cc(O)cc(c1)C[C@H](NC(=O)C(C)C1CCOCC1)C(=O)N1CCC[C@H](N1)C(=O)OCC(C)(C)C2 (some centres unmarked)	1 to 10 µM
CCn1c(-c2cccnc2[C@H](C)OC)c2c3cc(ccc31)-c1csc(n1)C[C@H](NC(=O)[C@H](C(C)C)N(C)C(=O)N1[C@H](C)COC[C@H]1C)C(=O)N1CCC[C@H](N1)C(=O)OCC(C)(C)C2	0.01 to 0.1 µM
CCn1c(-c2cnccc2COC)c2c3cc(ccc31)-c1cc(O)cc(c1)C[C@H](NC(=O)[C@H](C(C)C)N(C)C(=O)[C@H]1CCN(C3CCOCC3)C1)C(=O)N1CCC[C@H](N1)C(=O)OCC(C)(C)C2	> 10 µM

Field: next molecule
Recall the recorded IC50 for CCn1c(-c2cccnc2[C@H](C)OC)c2c3cc(ccc31)-c1cccc(c1)C[C@H](NC(=O)[C@H](C(C)C)N(C)C(=O)[C@H]1CCNC1)C(=O)N1CCC[C@H](N1)C(=O)OCC(C)(C)C2 with KRAS G12V (Homo sapiens (Human), UniProt P01116+P62937, G12V) and state it.
> 10 µM

----------
Catalogue of compounds with associated pIC50
molecular target: KRAS G12D (Homo sapiens (Human), UniProt P01116+P62937, G12D); assay: Ras-Raf disruption/FRET/MOA assay (BRAF RBD, Cyclophilin A); assay type: biochemical; conditions: read-out: KRAS G12D FRET IC50
Sequence (P01116 other isoform, or with tags, fused parts or gaps G12D): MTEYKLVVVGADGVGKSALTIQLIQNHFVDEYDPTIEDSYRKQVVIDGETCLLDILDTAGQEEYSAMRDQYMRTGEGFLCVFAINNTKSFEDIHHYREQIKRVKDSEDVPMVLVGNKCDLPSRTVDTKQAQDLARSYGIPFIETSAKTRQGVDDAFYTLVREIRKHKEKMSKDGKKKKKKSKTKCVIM
Sequence (P62937 whole entry): as the sequence (P62937 whole entry) above
pIC50: −log10 of the molar value.

Below, 8 compounds whose answers are already recorded.
CCn1c(-c2cccnc2[C@H](C)OC)c2c3cc(ccc31)-c1csc(n1)C[C@H](NC(=O)[C@H](C(C)C)N(C)C(=O)C1COC1)C(=O)N1CCC[C@H](N1)C(=O)OCC(C)(C)C2	< 5.00
CCn1c(-c2cccnc2[C@H](C)OC)c2c3cc(ccc31)-c1csc(n1)C[C@H](NC(=O)[C@H](C(C)C)N(C)C(=O)N1CC3(CC(N(C)C(C)C)C3)C1)C(=O)N1CCC[C@H](N1)C(=O)OCC(C)(C)C2	6.00 to 7.00
CCn1c(-c2cccnc2[C@H](C)OC)c2c3cc(ccc31)-c1csc(n1)C[C@H](NC(=O)[C@H](C(C)C)N(C)C(=O)N1CC(O)(COC)C1)C(=O)N1CCC[C@H](N1)C(=O)OCC(C)(C)C2	5.00 to 6.00
CCn1c(-c2cccnc2[C@H](C)OC)c2c3cc(ccc31)-c1cc(O)cc(c1)C[C@H](NC(=O)[C@H](C(C)C)N(C)C(=O)[C@H]1CCN(C(=O)[C@]3(C)CCCN3)C1)C(=O)N1CCC[C@H](N1)C(=O)OCC(C)(C)C2	7.00 to 8.00
CCn1c(-c2cnccc2COC)c2c3cc(ccc31)-c1cc(O)cc(c1)C[C@H](NC(=O)[C@H](C(C)C)N(C)C(=O)[C@H]1CCN(C[C@@H](C)O)C1)C(=O)N1CCC[C@H](N1)C(=O)OCC(C)(C)C2	6.00 to 7.00
CCn1c(-c2cccnc2[C@H](C)OC)c2c3cc(ccc31)-c1cc(O)cc(c1)C[C@H](NC(=O)[C@@H]1[C@H]3C[C@H]3CN1C(C)=O)C(=O)N1CCC[C@H](N1)C(=O)OCC(C)(C)C2	< 5.00
CCn1c(-c2cccnc2COC)c2c3cc(ccc31)-c1cc(O)cc(c1)C[C@H](NC(=O)[C@H](C(C)C)N(C)C(C)=O)C(=O)N1CCC[C@H](N1)C(=O)OCC(C)(C)C2	< 5.00
CCn1c(-c2cnccc2COC)c2c3cc(ccc31)-c1cc(O)cc(c1)C[C@H](NC(=O)[C@@H](NC(C)=O)C(C)C)C(=O)N1CCC[C@H](N1)C(=O)OCC(C)(C)C2	< 5.00

Turning now to a further record.
# get_value(readout='pIC50', item= CCn1c(-c2cccnc2[C@H](C)OC)c2c3cc(ccc31)-c1csc(n1)C[C@H](NC(=O)[C@H](C(C)C)N(C)C(=O)N1CC(C(=O)N3CCOCC3)C1)C(=O)N1CCC[C@H](N1)C(=O)OCC(C)(C)C2 )
6.00 to 7.00
